Please consider the recorded IC50 for hAChE (Homo sapiens) in what follows.
Returns: string containing the numeric result and its unit.

COc1ccc(-c2c(-c3ccccc3S(C)(=O)=O)oc3c2c(=O)oc2ccccc23)cc1 | 5.7 µM
Cc1ccc(-c2c(-c3ccccc3S(C)(=O)=O)oc3c2c(=O)oc2ccccc23)cc1 | 4.4 µM
Cc1ccc([C@@H]2c3c(c4ccccc4oc3=O)O[C@H]2c2ccccc2S(C)(=O)=O)cc1 | 5.5 µM
COc1ccc([C@@H]2c3c(c4ccccc4oc3=O)O[C@H]2c2ccccc2S(C)(=O)=O)cc1 | 6.1 µM
CS(=O)(=O)c1ccccc1[C@@H]1Oc2c(c(=O)oc3ccccc23)[C@H]1c1cccs1 | 4 µM

// batch mode: one IC50 value per listed entry
1. CS(=O)(=O)c1ccccc1-c1oc2c(c1-c1cccs1)c(=O)oc1ccccc12
2. CS(=O)(=O)c1ccccc1[C@@H]1Oc2c(c(=O)oc3ccccc23)[C@H]1c1ccc(Cl)cc1

["4.1 µM", "4 µM"]
